Below: a set of entries, each annotated with reported log10(IC50).
testedTarget: butyrylcholinesterase (BuChE) (Rattus norvegicus)
Construct: from tissue; host or cells: rat serum
Sequence (Q9JKC1 24-597): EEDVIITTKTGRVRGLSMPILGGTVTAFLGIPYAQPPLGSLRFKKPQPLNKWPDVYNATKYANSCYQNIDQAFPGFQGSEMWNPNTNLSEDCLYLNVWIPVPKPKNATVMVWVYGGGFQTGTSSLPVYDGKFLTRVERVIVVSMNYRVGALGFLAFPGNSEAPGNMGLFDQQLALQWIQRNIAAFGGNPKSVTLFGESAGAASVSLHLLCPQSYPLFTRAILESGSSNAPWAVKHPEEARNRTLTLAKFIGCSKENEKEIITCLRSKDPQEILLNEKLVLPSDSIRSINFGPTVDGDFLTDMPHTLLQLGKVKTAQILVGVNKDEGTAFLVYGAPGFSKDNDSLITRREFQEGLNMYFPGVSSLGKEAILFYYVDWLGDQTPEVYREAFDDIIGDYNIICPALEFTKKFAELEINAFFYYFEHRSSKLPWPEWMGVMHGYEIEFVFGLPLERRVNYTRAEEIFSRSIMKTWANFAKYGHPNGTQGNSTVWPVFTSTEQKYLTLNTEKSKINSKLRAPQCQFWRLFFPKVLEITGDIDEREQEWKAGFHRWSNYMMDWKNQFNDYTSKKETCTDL
testMethodNotes: In-vitro anticholinesterase effect, colorimetric method (Ellman), BuChE from rat's serum
Assay type: biochemical
Excerpt: In the present invention a calorimetric method reported by Ellman was used to determine the effect of inhibition of the pharmaceutical on enzyme activity. […]
measuredQuantity: log10(IC50) (log10 of the value in µM)

{"compound": "CC=C1C2C=C(C)CC1(N=Cc1ccc(OC)c(OC)c1O)c1ccc(=O)[nH]c1C2 (centres unmarked)", "recordedNumber": 2.10}
{"compound": "CC=C1C2C=C(C)CC1(NC(=O)c1cccnc1)c1ccc(=O)[nH]c1C2 (centres unmarked)", "recordedNumber": 1.77}
{"compound": "CC=C1C2C=C(C)CC1(N=Cc1ccccc1O)c1ccc(=O)[nH]c1C2 (centres unmarked)", "recordedNumber": 2.10}
{"compound": "CC=C1C2C=C(C)CC1(N=Cc1ccc(O)c(O)c1O)c1ccc(=O)[nH]c1C2 (centres unmarked)", "recordedNumber": 2.40}
{"compound": "CNC(=O)Oc1ccc2c(c1)[C@]1(C)CCN(C)[C@@H]1N2C [Physostigmine, reference compound]", "recordedNumber": 0.10}
{"compound": "CC=C1C2C=C(C)CC1(N=Cc1ccc(O)cc1O)c1ccc(=O)[nH]c1C2 (centres unmarked)", "recordedNumber": 2.30}
{"compound": "CC=C1C2C=C(C)CC1(N=CC=Cc1ccccc1)c1ccc(=O)[nH]c1C2 (centres unmarked)", "recordedNumber": 2.00}
{"compound": "CC=C1C2C=C(C)CC1(N=Cc1cc(OC)c(OC)c(OC)c1)c1ccc(=O)[nH]c1C2 (centres unmarked)", "recordedNumber": 2.20}
